# PROTOCOL_NOTES: in vitro
# MEASUREMENT_SETUP: human, uninfected MT-4 cells
MEASURED_PARAMETER: CC50 at 5 days

> print(dat)
                                   compound  measured.parameter   result
1  C[C@H]1OC[C@]2(CC[C@H](C)N3C[C@H]2n2cc(C(=O)NCc4c(F)cc(F)cc4F)c(=O)c(O)c2C3=O)O1 [Example 132]      CC50 at 5 days  30.3 µM
2  C[C@H]1CC[C@]2(CC(CF)=NO2)[C@H]2CN1C(=O)c1c(O)c(=O)c(C(=O)NCc3ncc(F)c(Cl)c3F)cn12 [Example 66]      CC50 at 5 days  30.1 µM
3  COC1=NO[C@@]2(CC[C@H](C)N3C[C@H]2n2cc(C(=O)NCc4c(F)cc(F)cc4F)c(=O)c(O)c2C3=O)[C@H]1C [Example 85]      CC50 at 5 days  29.6 µM

###

# PROTOCOL_NOTES: in vitro
# MEASUREMENT_SETUP: human, uninfected MT-4 cells
Measured CC50 at 5 days accompanies every entry in the list below.

MOLECULE	CC50 at 5 days
CO[C@H]1CS[C@@]2(CC[C@H](C)N3C[C@H]2n2cc(C(=O)NCc4c(F)cc(F)cc4F)c(=O)c(O)c2C3=O)O1 (single isomer, unassigned) [170 (peak 3)]	8.24 µM
C[C@H]1CC[C@@]2(CC(=O)N(Cc3ccc(F)cc3)O2)[C@H]2CN1C(=O)c1c(O)c(=O)c(C(=O)NCc3c(F)cc(F)cc3F)cn12 [Example 102]	8.79 µM
CC1=NO[C@]2(CC[C@H](C)N3C[C@H]2n2cc(C(=O)NCc4ccc(F)cc4F)c(=O)c(O)c2C3=O)C1=O [Example 25]	≥ 50 µM
C[C@H]1CC[C@]2(CC(C3CC3)=NO2)[C@H]2CN1C(=O)c1c(O)c(=O)c(C(=O)NCc3ccc(F)cc3F)cn12 [Example 15]	≥ 50 µM
CCN1O[C@@]2(CC[C@H](C)N3C[C@H]2n2cc(C(=O)NCc4c(F)cc(F)cc4F)c(=O)c(O)c2C3=O)CC1=O [Example 157]	≥ 50 µM
COC1=NS[C@]2(CC[C@H](C)N3C[C@H]2n2cc(C(=O)NCc4ccc(F)cc4F)c(=O)c(O)c2C3=O)C1 [Example 145]	≥ 50 µM
C[C@H]1CC[C@@]2(CN(C)C(=O)O2)[C@H]2CN1C(=O)c1c(O)c(=O)c(C(=O)NCc3c(F)cc(F)cc3F)cn12 [Example 60]	≥ 50 µM
